tested on: Phospho-ERK levels in KYSE-520 cells; experiment: pERK AlphaScreen Protocol; format: cell-based; details: Homo sapiens, KYSE-520, 2 h, KYSE-520 cells, 2 hr compound incubation, phospho-ERK1/2 AlphaScreen SureFire; read-out: PERK Avg IC50
Please assign not satisfied whenever IC50 is at or above 600 nM, and satisfied whenever it is below.

[[record]]
molecule = "CNc1nccc(-c2n[nH]c3nc(N4CCC5(CCC[C@H]5N)CC4)cnc23)c1Cl [Example 111]"
targetdesc = "Phospho-ERK levels in KYSE-520 cells"
answerlabel = "satisfied"

[[record]]
molecule = "NCC1(O)CCN(c2cnc3c(-c4c(F)cccc4Cl)n[nH]c3n2)CC1 [Example 63]"
targetdesc = "Phospho-ERK levels in KYSE-520 cells"
answerlabel = "not satisfied"

[[record]]
molecule = "CC1(CN)CCN(c2cnc3c(-c4ccnc(O)c4Cl)n[nH]c3n2)CC1 [Example 118]"
targetdesc = "Phospho-ERK levels in KYSE-520 cells"
answerlabel = "not satisfied"

[[record]]
molecule = "CC1(N)CCN(c2cnc3c(-c4ccnc(N)c4Cl)n[nH]c3n2)CC1 [Example 106]"
targetdesc = "Phospho-ERK levels in KYSE-520 cells"
answerlabel = "satisfied"

[[record]]
molecule = "CC1(CN)CCN(c2cnc3c(-c4ccc(F)c(Cl)c4)n[nH]c3n2)CC1 [Example 14]"
targetdesc = "Phospho-ERK levels in KYSE-520 cells"
answerlabel = "satisfied"

[[record]]
molecule = "NC1(CO)CCN(c2cnc3c(-c4cccnc4Cl)n[nH]c3n2)CC1 [Example 59]"
targetdesc = "Phospho-ERK levels in KYSE-520 cells"
answerlabel = "not satisfied"


Alright, here's another molecule for you.
Please indicate whether the reported IC50 of CC(N)C1(C)CCN(c2cnc3c(-c4ccnc(N)c4Cl)n[nH]c3n2)CC1 (single isomer, unassigned) [Example 113a] is strictly below 600 nM.
satisfied

====

System: Phospho-ERK levels in KYSE-520 cells
Assay: pERK AlphaScreen Protocol
Assay type: cell-based
Conditions: Homo sapiens, KYSE-520, 2 h, KYSE-520 cells, 2 hr compound incubation, phospho-ERK1/2 AlphaScreen SureFire; read-out: PERK Avg IC50
Description: KYSE-520 cells (10 k cells/well) were grown in 384-well plate in 20 uL of medium (RPMI-1640, without phenol red, containing 10% FBS) at 37° C. with 5% CO2 overnight. […] Phospho-ERK levels were measured using phospho-ERK1/2 AlphaScreen SureFire (PerkinElmer, TGRESB10K) following manufacturer's recommendations. Dose-response curves were analyzed using IC50 regression curve fitting (GeneData Screener). […]
Could you please report measured pIC50 for the items listed next?
Numbers only, as −log10 of the molar value.

[[record]]
compound = "CC1(CN)CCN(c2cnc3c(-c4cccc(Cl)c4)n[nH]c3n2)CC1"
reportedendpoint = "pIC50"
obsvalue = 6.32

[[record]]
compound = "CC1(CN)CCN(c2cnc3c(-c4cccc(Cl)c4F)n[nH]c3n2)CC1"
reportedendpoint = "pIC50"
obsvalue = 7.33

[[record]]
compound = "N[C@@H]1COCC12CCN(c1cnc3c(-c4ccccc4Cl)n[nH]c3n1)CC2"
reportedendpoint = "pIC50"
obsvalue = 6.99


Provide pIC50 values for the following items, in order.
1. CC1(CN)CCN(c2cnc3c(-c4cccnc4Cl)n[nH]c3n2)CC1
2. NC1C(F)(F)CCC12CCN(c1cnc3c(-c4cccc(Cl)c4Cl)n[nH]c3n1)CC2 (single isomer, unassigned; isomer a) [Example 65A]
3. CC1(N)CCN(c2cnc3c(-c4cccnc4Cl)n[nH]c3n2)CC1

1. 6.49
2. 7.03
3. 6.37

Provide pIC50 values for the following items, in order.
1. COc1cccc(-c2n[nH]c3nc(N4CCC5(CCC[C@H]5N)CC4)cnc23)c1Cl
2. CC1(N)CCN(c2cnc3c(-c4cccc(N)c4Cl)n[nH]c3n2)CC1

[7.47, 6.92]
